Recorded values, source ChEMBL document CHEMBL1130739.

target: Dihydroorotate dehydrogenase (quinone), mitochondrial (Homo sapiens); assay: Inhibition of human recombinant dihydroorotate dehydrogenase (DHODase)
Sequence (Q02127 whole entry): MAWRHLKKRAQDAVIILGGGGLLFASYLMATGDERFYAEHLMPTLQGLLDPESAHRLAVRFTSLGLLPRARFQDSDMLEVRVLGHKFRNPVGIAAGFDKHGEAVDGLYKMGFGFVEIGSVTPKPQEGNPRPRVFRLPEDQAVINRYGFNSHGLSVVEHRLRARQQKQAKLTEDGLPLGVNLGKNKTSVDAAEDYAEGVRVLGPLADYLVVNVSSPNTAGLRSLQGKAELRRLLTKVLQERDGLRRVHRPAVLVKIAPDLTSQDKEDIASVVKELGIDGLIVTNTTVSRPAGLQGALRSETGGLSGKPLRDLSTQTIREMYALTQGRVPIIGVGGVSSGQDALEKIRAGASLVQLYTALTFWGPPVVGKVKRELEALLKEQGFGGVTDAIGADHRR
pKi: −log10 of the molar value.
A collection of molecules and their measured pKi

Please review the entries below; each comes with its answer.
# SUBSTANCE_SMILES, SYSTEM, pKi
measured = [
    ("O=C(O)c1c2c(nc3ccc(F)cc13)-c1sc(-c3ccccc3)cc1CC2", "Dihydroorotate dehydrogenase (quinone), mitochondrial (Homo sapiens)", "< 6.74"),
    ("O=C(O)c1c2c(nc3ccc(F)cc13)-c1cc(-c3ccccc3)ccc1CC2", "Dihydroorotate dehydrogenase (quinone), mitochondrial (Homo sapiens)", "< 6.00"),
    ("O=C(O)c1c2c(nc3ccc(F)cc13)-c1ccc(-c3ccccc3)cc1CO2", "Dihydroorotate dehydrogenase (quinone), mitochondrial (Homo sapiens)", "< 6.69"),
]

# evaluate next
Reported pKi for `O=C(O)c1c2c(nc3ccc(F)cc13)-c1ccc(-c3nccs3)cc1CC2` : what is it?
< 6.74
